The measured values listed here are drawn from patent US20260098080A1.

- target: T1, human MASP-2cf CCP1-CCP2-SP (human, UniProt O00187 298-686, limits assumed)
- T1 construct: domain: CCP1-CCP2-SP; also called human MASP-2 catalytic fragment
- T1 sequence (O00187 298-686 limits assumed): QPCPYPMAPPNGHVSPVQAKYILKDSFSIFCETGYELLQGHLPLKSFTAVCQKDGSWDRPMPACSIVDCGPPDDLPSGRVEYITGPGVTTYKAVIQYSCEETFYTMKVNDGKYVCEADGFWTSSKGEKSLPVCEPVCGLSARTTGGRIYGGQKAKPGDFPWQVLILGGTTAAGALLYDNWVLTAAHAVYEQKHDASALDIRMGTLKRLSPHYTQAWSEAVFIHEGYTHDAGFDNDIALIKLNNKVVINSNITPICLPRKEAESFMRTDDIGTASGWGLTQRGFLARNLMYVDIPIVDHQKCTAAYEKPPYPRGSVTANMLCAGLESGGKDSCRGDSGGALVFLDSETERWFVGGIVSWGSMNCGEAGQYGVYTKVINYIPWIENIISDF
- method.summary: SPR, target immobilised
Where no end group is shown, it is not given here.
readout.label: Kd (nM)
Please give a number only; it is taken to be in nM.

Below, 3 binders whose answers are already recorded.
>  <binder>
EVO22 (designed binder, not fully specified; cysteine pairing not given here, Modified TFPI-D2 Kunitz domain; made as m1) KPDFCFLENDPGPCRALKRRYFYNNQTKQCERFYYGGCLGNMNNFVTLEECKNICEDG

>  <Kd [nM]>
0.137

$$$$
>  <binder>
EVO2 (designed binder, not fully specified; ends and bridges not checked, Modified Kunitz domain TFPI-D2 of human TFPI-1; recombinant from E. coli, freed from a His6-S100A4 fusion by TEV protease; also called TFMI-2b) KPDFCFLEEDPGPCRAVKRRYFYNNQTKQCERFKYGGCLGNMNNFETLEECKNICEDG

>  <Kd [nM]>
1.79

$$$$
>  <binder>
EVO212 (designed binder, not fully specified; ends and bridges not checked, Modified TFPI-D2 Kunitz domain; made as m1) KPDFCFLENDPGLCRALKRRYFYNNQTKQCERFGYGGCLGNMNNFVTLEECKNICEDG

>  <Kd [nM]>
0.055

$$$$

Item: EVO215 (designed binder, not fully specified; ends and bridges not checked, Modified TFPI-D2 Kunitz domain; made as m1) KPDFCFLENDPGWCRAAKRRYFYNNQTKQCERFGYGGCLGNMNNFVTLEECKNICEDG | Kd: 0.304

Entry EVO2a (designed binder, not fully specified; cysteine pairing not given here, Modified TFPI-D2 Kunitz domain; made as m1) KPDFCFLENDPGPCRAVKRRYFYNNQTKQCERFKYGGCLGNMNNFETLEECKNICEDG — recorded Kd = 2.95
